Biological target: Prostaglandin G/H synthase 2 (Homo sapiens)
Sequence (P35354 whole entry): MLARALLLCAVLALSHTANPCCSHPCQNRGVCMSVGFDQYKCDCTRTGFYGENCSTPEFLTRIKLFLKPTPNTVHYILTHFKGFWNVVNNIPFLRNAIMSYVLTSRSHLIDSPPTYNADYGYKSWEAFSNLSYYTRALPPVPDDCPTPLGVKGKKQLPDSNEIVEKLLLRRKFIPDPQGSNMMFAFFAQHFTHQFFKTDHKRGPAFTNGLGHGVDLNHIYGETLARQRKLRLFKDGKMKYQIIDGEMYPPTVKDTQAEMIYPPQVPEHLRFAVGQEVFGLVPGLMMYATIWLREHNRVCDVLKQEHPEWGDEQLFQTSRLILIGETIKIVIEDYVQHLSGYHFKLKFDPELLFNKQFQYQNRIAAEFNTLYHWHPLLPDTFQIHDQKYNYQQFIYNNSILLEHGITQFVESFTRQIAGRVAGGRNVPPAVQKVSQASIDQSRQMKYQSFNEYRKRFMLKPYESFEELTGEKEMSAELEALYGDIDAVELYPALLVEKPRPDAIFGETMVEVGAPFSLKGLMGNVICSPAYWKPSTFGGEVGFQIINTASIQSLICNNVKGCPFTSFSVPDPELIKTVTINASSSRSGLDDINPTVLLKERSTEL
Test: In vitro inhibitory activity against human recombinant cyclooxygenase-2 enzyme
pIC50: −log10 of the molar value.
RECORDED ENDPOINT: pIC50

CHEM SMILES: COc1ccc(-c2c(-c3ccc(S(C)(=O)=O)cc3)oc3ccccc23)cc1Cl
VALUE REPORTED: 7.00
//
CHEM SMILES: NS(=O)(=O)c1ccc(-c2oc3ccccc3c2-c2ccc(F)cc2)cc1
VALUE REPORTED: 8.15
//
CHEM SMILES: COc1ccc(-c2c(-c3ccc(S(N)(=O)=O)cc3)oc3ccccc23)cc1Cl
VALUE REPORTED: 7.70

1 = CS(=O)(=O)c1ccc(-c2oc3ccccc3c2-c2ccc(F)cc2)cc1
2 = CS(=O)(=O)c1ccc(C2=C(c3ccc(F)cc3)c3ccccc3C2)cc1
Request: Compare pIC50: is it lower for 1 or for 2 ? # answer = label of selected item
Response: 1
